- System: Staphylococcus aureus SA1199B
- Format: cell-based
MIC by entry:

Compound	MIC [µg/mL]
CCCCCCCCC#CCCCCCCNC1(C)CC(OC2C(Oc3c4cc5cc3Oc3ccc(cc3Cl)C(OC3CC(C)(N)C(O)C(C)O3)C3NC(=O)C(NC(=O)C5NC(=O)C(CC(N)=O)NC(=O)C(NC(=O)C(CC(C)C)NC)C(O)c5ccc(c(Cl)c5)O4)c4ccc(O)c(c4)-c4c(O)cc(O)cc4C(C(=O)O)NC3=O)OC(CO)C(O)C2O)OC(C)C1O (centres unmarked) [Compound 207]	16
CNC(CC(C)C)C(=O)NC1C(=O)NC(CC(N)=O)C(=O)NC2C(=O)NC3C(=O)NC(C(=O)NC(C(=O)O)c4cc(O)cc(O)c4-c4cc3ccc4O)C(OC3CC(C)(N)C(O)C(C)O3)c3ccc(c(Cl)c3)Oc3cc2cc(c3OC2OC(CO)C(O)C(O)C2OC2CC(C)(NCc3ccc4c(c3)OCCO4)C(O)C(C)O2)Oc2ccc(cc2Cl)C1O (centres unmarked) [Compound 56]	0.5

====

- System: Staphylococcus aureus SA1199B
- Assay type: cell-based

Compound	Rel	MIC / µg/mL
CNC(CC(C)C)C(=O)NC1C(=O)NC(CC(N)=O)C(=O)NC2C(=O)NC3C(=O)NC(C(=O)NC(C(=O)O)c4cc(O)cc(O)c4-c4cc3ccc4O)C(OC3CC(C)(N)C(O)C(C)O3)c3ccc(c(Cl)c3)Oc3cc2cc(c3OC2OC(CO)C(O)C(O)C2OC2CC(C)(NCc3ccc(OC(F)(F)C(F)F)cc3)C(O)C(C)O2)Oc2ccc(cc2Cl)C1O (stereo not drawn)	=	0.25
CNC(CC(C)C)C(=O)NC1C(=O)NC(CC(N)=O)C(=O)NC2C(=O)NC3C(=O)NC(C(=O)NC(C(=O)O)c4cc(O)cc(O)c4-c4cc3ccc4O)C(OC3CC(C)(NCc4c5ccccc5c(C)c5ccccc45)C(O)C(C)O3)c3ccc(c(Cl)c3)Oc3cc2cc(c3OC2OC(CO)C(O)C(O)C2OC2CC(C)(NCc3c4ccccc4c(C)c4ccccc34)C(O)C(C)O2)Oc2ccc(cc2Cl)C1O (stereo not drawn)	=	32
CC(C)CC(C(=O)NC1C(=O)NC(CC(N)=O)C(=O)NC2C(=O)NC3C(=O)NC(C(=O)NC(C(=O)O)c4cc(O)cc(O)c4-c4cc3ccc4O)C(OC3CC(C)(NCc4ccc(-c5ccc(Cl)cc5)cc4)C(O)C(C)O3)c3ccc(c(Cl)c3)Oc3cc2cc(c3OC2OC(CO)C(O)C(O)C2OC2CC(C)(NCc3ccc(-c4ccc(Cl)cc4)cc3)C(O)C(C)O2)Oc2ccc(cc2Cl)C1O)N(C)Cc1ccc(-c2ccc(Cl)cc2)cc1.O=C(O)C(F)(F)F (stereo not drawn)	>	64

====

- System: vancomycin-resistant enterococci
- Protocol Text: broth micro-dilution, mean geometric MIC
- Format: cell-based, Enterococcus faecium and Enterococcus faecalis
- Experimental Conditions: enterococci, 24-hour incubation
Below is a list of entries, each paired with its recorded mean geometric MIC, Vancomycin Resistant Strains value.
Metric Name: mean geometric MIC, Vancomycin Resistant Strains (µg/mL)

Compound	Target Under Test	Experimental Result
CNC(CC(C)C)C(=O)NC1C(=O)NC(CC(N)=O)C(=O)NC2C(=O)NC3C(=O)NC(C(=O)NC(C(=O)O)c4cc(O)cc(O)c4-c4cc3ccc4O)C(OC3CC(C)(N)C(O)C(C)O3)c3ccc(c(Cl)c3)Oc3cc2cc(c3OC2OC(CO)C(O)C(O)C2OC2CC(C)(NCCCCCCCCCCc3ccccc3)C(O)C(C)O2)Oc2ccc(cc2Cl)C1O (centres unmarked)	vancomycin-resistant enterococci	1.2
CNC(CC(C)C)C(=O)NC1C(=O)NC(CC(N)=O)C(=O)NC2C(=O)NC3C(=O)NC(C(=O)NC(C(=O)O)c4cc(O)cc(O)c4-c4cc3ccc4O)C(OC3CC(C)(N)C(O)C(C)O3)c3ccc(c(Cl)c3)Oc3cc2cc(c3OC2OC(CO)C(O)C(O)C2OC2CC(C)(NCc3cccc(OCC4CCCCC4)c3)C(O)C(C)O2)Oc2ccc(cc2Cl)C1O (centres unmarked)	vancomycin-resistant enterococci	1.0
